- Tested on: IGROV-1
- TEST_SUMMARY: NCI tumour cell line growth inhibition, 48 h
Active and inactive are the calls of the source. Rule as the data show it: active = GI50 up to about 1.1 µM and inactive = higher.
Respond with a class label; see active, inactive

How did this test come out for O=C1c2cc3c(cc2CC12Cc1ccc4c(c1C2=O)CCCC4)CCCC3 (stereo unspecified) ? inactive

Hi, sorry to bother you, what did the test record for CC1=CC(=O)C2=C(C)CCC3C(C)C(=O)OC3C12 (stereo unspecified) ? inactive

State the result this test recorded for COc1cc2c3c(c1O)-c1c(ccc(OC)c1OC)CC3N(C)CC2 (stereo unspecified) . inactive

Hi team, can someone confirm the assay call for "Nc1ncnc2c1ncn2[C@H]1CC[C@@H](NO)C1" ? inactive

Entry "O=c1[nH]c(Br)nc2[nH]nnc12" : call = ? inactive

Outcome logged for "CCc1ccc(Nc2ccc([N+](=O)[O-])cc2[N+](=O)[O-])cc1" in this assay: inactive

Returns: the outcome recorded for "COc1cc2oc(-c3ccccc3)cc(=O)c2c(O)c1C" in this assay. inactive

Could you kindly confirm the outcome this assay logged for "COc1ccc(C2=NN(c3ccccc3)C[N+](c3ccc(C)cc3)=N2)cc1" ? inactive

In this assay, the call recorded for "CCOC(=O)c1[nH]c(Br)c(-c2ccc(OC)c(OC)c2)c1Br" was what? active

What is the recorded call for this compound in the test? "C[C@H](O)C(=O)SC[C@H](NC(=O)CC[C@@H](N)C(=O)O)C(=O)NCC(=O)O" inactive

Tell me the recorded outcome of this test for "CN(C)c1ccc(-c2ccc(N(C)C)c3n[se]nc23)c2n[se]nc12" . inactive
